Test: Solubility profile, excess solids equilibrated in each solvent
Assay type: physicochemical
Conditions: organic solvent or mixture, thermodynamic from solid; Acetone, over 24 hours at 25° C.; read-out: Solubility

item.smiles | Solubility
N#Cc1ccc([C@H]2CCc3cncn32)c(F)c1 | > 50 mg/mL

---

Assay: Solubility profile, excess solids equilibrated in each solvent
Type: physicochemical
Settings: simulated gastric fluid, thermodynamic from solid; pH 1, over 24 hours at 25° C.; read-out: Solubility

compound | Solubility
N#Cc1ccc([C@H]2CCc3cncn32)c(F)c1 [Compound A] | > 50 mg/mL

Data provenance is patent US9333234B2.
